All values here come from ChEMBL document CHEMBL1821662.

test system: HCT-116; assay: Antiproliferative activity against human HCT116 cells; format: functional, cell-based
Response field label: string, one of yes (1) (IC50 strictly below 400 nM) or no (0).

{"input smiles": "Cc1cc(Nc2nc(Sc3ccc(NC(=O)C4CC4)cc3)nn3cc(NC(=O)CN4CCCC4)cc23)n[nH]1", "group label": "no (0)"}
{"input smiles": "Cc1cc(Nc2nc(Sc3ccc(NC(=O)CN4C[C@H](O)C[C@H]4CO)cc3)nn3cccc23)n[nH]1", "group label": "no (0)"}
{"input smiles": "Cc1cc(Nc2nc(Sc3ccc(NC(=O)CN(C)C)cc3)nn3cccc23)n[nH]1", "group label": "yes (1)"}
{"input smiles": "Cc1cc(Nc2nc(Sc3ccc(NC(=O)CN4C[C@H](Oc5ccc(F)cc5)[C@@H](O)C4)cc3)nn3cccc23)n[nH]1", "group label": "yes (1)"}
{"input smiles": "Cc1cc(Nc2nc(Sc3ccc(NC(=O)C4CC4)cc3)nn3cc(NC(=O)CCN4CCCCC4)cc23)n[nH]1", "group label": "yes (1)"}

Please turn your attention to the following entry.
## Task Lab log: compare recorded IC50 with 400 nM; is it strictly lower for Cc1cc(Nc2nc(Sc3ccc(NC(=O)CN4C[C@H](Oc5ccccc5F)[C@@H](O)C4)cc3)nn3cccc23)n[nH]1 ?
## Result yes (1)

---

experiment: Half life in Sprague-Dawley rat at 1 mg/kg, iv; type: ADME, organism-based; set-up: dose 1 mg/kg, route intravenous; details: in vivo
value type: half-life (h)
Answer with a number only, understood to be in h.

{"input smiles": "Cc1cc(Nc2nc(Sc3ccc(NC(=O)C4CC4)cc3)nn3cc(NC(=O)N4CCN(C)CC4)cc23)n[nH]1", "unit abbreviation": "h", "experimental value": 8.66}
{"input smiles": "Cc1cc(Nc2nc(Sc3ccc(NC(=O)CN4C[C@H](OC(C)(C)C)[C@@H](O)C4)cc3)nn3cccc23)n[nH]1", "unit abbreviation": "h", "experimental value": 11.2}
{"input smiles": "Cc1cc(Nc2nc(Sc3ccc(NC(=O)CN4C[C@H](Oc5ccc(F)cc5)[C@@H](O)C4)cc3)nn3cccc23)n[nH]1", "unit abbreviation": "h", "experimental value": 3.36}
{"input smiles": "Cc1cc(Nc2nc(Sc3ccc(NC(=O)CN4C[C@H](OC(C)(C)C)C[C@H]4CO)cc3)nn3cccc23)n[nH]1", "unit abbreviation": "h", "experimental value": 15.4}

## Task Dear colleague, please send me the reported half-life for Cc1cc(Nc2nc(Sc3ccc(NC(=O)C4CC4)cc3)nn3cccc23)n[nH]1 when you can.
## Result 10.8

---

Biological target: Aurora kinase A (Homo sapiens)
Sequence (O14965 whole entry): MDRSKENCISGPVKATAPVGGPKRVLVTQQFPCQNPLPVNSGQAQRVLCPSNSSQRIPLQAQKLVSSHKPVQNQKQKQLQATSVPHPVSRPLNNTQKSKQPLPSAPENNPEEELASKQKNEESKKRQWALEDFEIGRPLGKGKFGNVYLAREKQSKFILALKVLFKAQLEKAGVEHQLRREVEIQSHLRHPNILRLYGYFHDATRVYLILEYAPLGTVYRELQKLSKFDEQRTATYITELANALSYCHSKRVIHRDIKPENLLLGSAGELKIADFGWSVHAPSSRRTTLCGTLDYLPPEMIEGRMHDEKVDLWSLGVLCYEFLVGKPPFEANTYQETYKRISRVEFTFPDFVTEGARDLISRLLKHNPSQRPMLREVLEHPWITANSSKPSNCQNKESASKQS
value type: pKd
# pKd is unitless: minus log10 of the molar concentration; print number only

# annotated cases, reported pKd shown
{"input smiles": "Cc1cc(Nc2nc(Sc3ccc(NC(=O)C4CC4)cc3)nn3cc(NC(=O)CN4CCCC4)cc23)n[nH]1", "pKd": 7.64}
{"input smiles": "Cc1cc(Nc2nc(Sc3ccc(NC(=O)CN(C)C)cc3)nn3cccc23)n[nH]1", "pKd": 7.51}
{"input smiles": "CCC(C)(C)O[C@H]1CN(CC(=O)Nc2ccc(Sc3nc(Nc4cc(C)[nH]n4)c4cccn4n3)cc2)C[C@@H]1O", "pKd": 8.10}
{"input smiles": "Cc1cc(Nc2nc(Sc3ccc(NC(=O)CN4C[C@H](OC(C)(C)C)C[C@@H]4CO)cc3)nn3cccc23)n[nH]1", "pKd": 6.52}

Please examine the following record next.
## Task GET pKd | system: Aurora kinase A (Homo sapiens) | item: Cc1cc(Nc2nc(Sc3ccc(NC(=O)CNC4CCCC4)cc3)nn3cccc23)n[nH]1
## Result 6.84

---

molecular target: Aurora kinase B (Homo sapiens); test: Inhibition of Aurora B kinase assessed as reduction in histone H3 phosphorylation in human HCT116 cells
Sequence (Q96GD4 whole entry): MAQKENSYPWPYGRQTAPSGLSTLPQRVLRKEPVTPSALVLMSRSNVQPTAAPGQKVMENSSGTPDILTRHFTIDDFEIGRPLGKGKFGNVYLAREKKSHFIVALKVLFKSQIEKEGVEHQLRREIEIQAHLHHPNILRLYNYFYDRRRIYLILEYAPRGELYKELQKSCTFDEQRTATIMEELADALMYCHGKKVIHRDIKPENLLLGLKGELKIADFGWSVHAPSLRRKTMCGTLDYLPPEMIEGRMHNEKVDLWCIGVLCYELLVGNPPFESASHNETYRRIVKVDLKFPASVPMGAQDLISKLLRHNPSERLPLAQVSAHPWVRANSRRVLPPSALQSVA
pIC50: −log10 of the molar value.
Returns one of t or f; t when pIC50 is >= 7.

Study these solved cases before continuing.
{"compound": "Cc1cc(Nc2nc(Sc3ccc(NC(=O)CN4C[C@H](OC(C)(C)C)C[C@H]4CO)cc3)nn3cccc23)n[nH]1", "group label": "t"}
{"compound": "Cc1cc(Nc2nc(Sc3ccc(NC(=O)C4CC4)cc3)nn3cc(NC(=O)CN4CCC[C@@H]4CO)cc23)n[nH]1", "group label": "f"}
{"compound": "Cc1cc(Nc2nc(Sc3ccc(NC(=O)CN4C[C@H](Oc5ccccc5F)[C@@H](O)C4)cc3)nn3cccc23)n[nH]1", "group label": "t"}
{"compound": "Cc1cc(Nc2nc(Sc3ccc(NC(=O)CN4C[C@H](Oc5cc(F)cc(F)c5)[C@@H](O)C4)cc3)nn3cccc23)n[nH]1", "group label": "t"}
{"compound": "Cc1cc(Nc2nc(Sc3ccc(NC(=O)CN4C[C@H](O)[C@@H](F)C4)cc3)nn3cccc23)n[nH]1", "group label": "t"}

Please turn your attention to the following entry.
## Task Hi, just wondering whether Cc1cc(Nc2nc(Sc3ccc(NC(=O)CN4C[C@H](N)C[C@H]4CO)cc3)nn3cccc23)n[nH]1 shows pIC50 of 7 or higher.
## Result f

---

Target: UniProt Q9UQB9
Sequence (Q9UQB9 whole entry): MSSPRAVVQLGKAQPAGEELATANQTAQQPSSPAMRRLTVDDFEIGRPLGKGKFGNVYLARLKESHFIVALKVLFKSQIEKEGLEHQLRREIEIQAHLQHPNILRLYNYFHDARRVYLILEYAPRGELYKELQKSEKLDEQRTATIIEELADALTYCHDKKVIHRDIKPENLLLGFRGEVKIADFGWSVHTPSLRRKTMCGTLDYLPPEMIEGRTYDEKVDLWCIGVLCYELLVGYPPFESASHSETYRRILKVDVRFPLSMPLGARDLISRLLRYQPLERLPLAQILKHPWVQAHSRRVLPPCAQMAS
Assay: Binding affinity to Aurora C kinase catalytic domain by competitive binding assay
value type: pKd
# pKd is unitless: minus log10 of the molar concentration; print number only

# annotated cases, reported pKd shown
{"input smiles": "Cc1cc(Nc2nc(Sc3ccc(NC(=O)CN4CCOCC4)cc3)nn3cccc23)n[nH]1", "value type": "pKd", "experimental value": 7.77}
{"input smiles": "Cc1cc(Nc2nc(Sc3ccc(NC(=O)CNC4CC4)cc3)nn3cccc23)n[nH]1", "value type": "pKd", "experimental value": 8.22}
{"input smiles": "Cc1cc(Nc2nc(Sc3ccc(NC(=O)C4CC4)cc3)nn3cc(NC(=O)CN4CCC[C@@H]4CO)cc23)n[nH]1", "value type": "pKd", "experimental value": 7.10}
{"input smiles": "Cc1cc(Nc2nc(Sc3ccc(NC(=O)C4CC4)cc3)nn3cc(NC(=O)CN4CCCC4)cc23)n[nH]1", "value type": "pKd", "experimental value": 7.89}
{"input smiles": "Cc1cc(Nc2nc(Sc3ccc(NC(=O)C4CC4)cc3)nn3cc(NC(=O)CN4CCOCC4)cc23)n[nH]1", "value type": "pKd", "experimental value": 8.52}

Please examine the following record next.
## Task Dear colleague, please send me the reported pKd for Cc1cc(Nc2nc(Sc3ccc(NC(=O)CN4C[C@H](OC(C)(C)C)C[C@H]4CO)cc3)nn3cccc23)n[nH]1 when you can.
## Result 8.70

---

assay: Clearance in Sprague-Dawley rat at 1 mg/kg, iv; assay type: ADME, organism-based; design: dose 1 mg/kg, route intravenous; details: in vivo
value type: clearance (mL/min/kg)
Answer with a number only, understood to be in mL/min/kg.

# annotated cases, reported clearance shown
{"input smiles": "Cc1cc(Nc2nc(Sc3ccc(NC(=O)CN4C[C@H](Oc5ccc(F)cc5)[C@@H](O)C4)cc3)nn3cccc23)n[nH]1", "unit abbreviation": "mL/min/kg", "experimental value": 25.2}
{"input smiles": "Cc1cc(Nc2nc(Sc3ccc(NC(=O)CN4C[C@H](OC(C)(C)C)C[C@H]4CO)cc3)nn3cccc23)n[nH]1", "unit abbreviation": "mL/min/kg", "experimental value": 52.2}
{"input smiles": "Cc1cc(Nc2nc(Sc3ccc(NC(=O)C4CC4)cc3)nn3cccc23)n[nH]1", "unit abbreviation": "mL/min/kg", "experimental value": 28.5}
{"input smiles": "Cc1cc(Nc2nc(Sc3ccc(NC(=O)C4CC4)cc3)nn3cc(NC(=O)N4CCN(C)CC4)cc23)n[nH]1", "unit abbreviation": "mL/min/kg", "experimental value": 53.3}

## Task Dear colleague, please send me the reported clearance for Cc1cc(Nc2nc(Sc3ccc(NC(=O)CN4C[C@H](OC(C)(C)C)[C@@H](O)C4)cc3)nn3cccc23)n[nH]1 when you can.
## Result 45
